Origin of values: patent US10093656B2

- tgt: EGFR d746-750/T790M (Homo sapiens, UniProt P00533, DEL746-750/T790M)
- Sequence (P00533 with tags, fused parts or gaps DEL746-750/T790M limits assumed): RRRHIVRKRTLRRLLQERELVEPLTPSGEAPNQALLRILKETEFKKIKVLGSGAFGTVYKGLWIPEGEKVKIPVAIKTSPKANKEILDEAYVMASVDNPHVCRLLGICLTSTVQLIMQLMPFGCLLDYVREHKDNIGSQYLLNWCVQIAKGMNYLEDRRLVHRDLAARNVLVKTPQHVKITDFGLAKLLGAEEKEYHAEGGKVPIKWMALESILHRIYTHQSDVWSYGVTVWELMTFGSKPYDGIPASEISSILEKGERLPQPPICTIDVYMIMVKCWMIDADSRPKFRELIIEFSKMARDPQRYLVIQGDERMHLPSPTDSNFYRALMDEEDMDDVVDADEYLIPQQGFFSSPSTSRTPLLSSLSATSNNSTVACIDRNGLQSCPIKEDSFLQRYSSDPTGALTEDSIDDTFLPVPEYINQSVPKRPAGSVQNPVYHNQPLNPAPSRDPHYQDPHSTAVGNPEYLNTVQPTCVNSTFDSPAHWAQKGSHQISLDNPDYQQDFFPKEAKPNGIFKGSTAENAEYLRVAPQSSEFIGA
- procedure-details: EGFR d746-750/T790M enzyme HTRF inhibition assay
- condition-context: 40 μM ATP
measured-metric: IC50 (nM)

Completed entries (count: 2):
structure-string	IC50 / nM
C=CC(=O)Nc1cc(Nc2ncc(F)c(-c3c4n(c5ccccc35)CCOC4)n2)c(OC)cc1N(C)CCN(C)C	0.16
C=CC(=O)Nc1cc(Nc2nccc(-c3c4n(c5ccccc35)CCC4)n2)c(OC)cc1N(C)CCN(C)C	0.39

a: C=CC(=O)Nc1cc(Nc2ncc(F)c(-c3c4n(c5ccccc35)CCOC4)n2)c(OC)cc1N(C)CCNC
b: C=CC(=O)Nc1cc(Nc2nccc(-c3c4n(c5ccccc35)CCOC4)n2)c(OC)cc1N(C)CCN(C)C
Prompt: Pick one: a or b . Which one has the lower reported IC50? Provide the label of your selected option as the answer.
Completion: b

----------
- System: A431 cells EGFR WT
- procedure-details: A431 cell viability assay (Cell Titer-Glo, 6 days)
- Type: cell-based, human
- condition-context: Homo sapiens, A-431, 144 h; A431 cells, 6 days
measured-metric: IC50 (nM)

Worked cases, IC50 given:
structure-string	IC50 / nM
C=CC(=O)Nc1cc(Nc2ncc(F)c(-c3c4n(c5cc(Cl)ccc35)CCOC4)n2)c(OC)cc1N(C)CCN(C)C	2100
C=CC(=O)Nc1cc(Nc2nccc(-c3c4n(c5ccccc35)CCOC4)n2)c(OC)cc1N(CC)CCN(C)C	965

1: C=CC(=O)Nc1cc(Nc2nccc(-c3c4n(c5ccc(F)cc35)CCOC4)n2)c(OC)cc1N(C)CCN(C)C
2: C=CC(=O)Nc1cc(Nc2ncc(F)c(-c3c4n(c5cc(F)ccc35)CCOC4)n2)c(OC)cc1N(C)CCN(C)C
3: C=CC(=O)Nc1cc(Nc2nccc(-c3c4n(c5ccccc35)CCC4)n2)c(OC)cc1CN1CCOCC1
Prompt: Order by IC50, ascending. Form entry: labels listed in requested order.
Completion: 1, 2, 3
(1: 303 nM, 2: 693 nM, 3: 1440 nM)

----------
- tgt: EGFR wild type (Homo sapiens)
- Sequence (P00533 25-1210): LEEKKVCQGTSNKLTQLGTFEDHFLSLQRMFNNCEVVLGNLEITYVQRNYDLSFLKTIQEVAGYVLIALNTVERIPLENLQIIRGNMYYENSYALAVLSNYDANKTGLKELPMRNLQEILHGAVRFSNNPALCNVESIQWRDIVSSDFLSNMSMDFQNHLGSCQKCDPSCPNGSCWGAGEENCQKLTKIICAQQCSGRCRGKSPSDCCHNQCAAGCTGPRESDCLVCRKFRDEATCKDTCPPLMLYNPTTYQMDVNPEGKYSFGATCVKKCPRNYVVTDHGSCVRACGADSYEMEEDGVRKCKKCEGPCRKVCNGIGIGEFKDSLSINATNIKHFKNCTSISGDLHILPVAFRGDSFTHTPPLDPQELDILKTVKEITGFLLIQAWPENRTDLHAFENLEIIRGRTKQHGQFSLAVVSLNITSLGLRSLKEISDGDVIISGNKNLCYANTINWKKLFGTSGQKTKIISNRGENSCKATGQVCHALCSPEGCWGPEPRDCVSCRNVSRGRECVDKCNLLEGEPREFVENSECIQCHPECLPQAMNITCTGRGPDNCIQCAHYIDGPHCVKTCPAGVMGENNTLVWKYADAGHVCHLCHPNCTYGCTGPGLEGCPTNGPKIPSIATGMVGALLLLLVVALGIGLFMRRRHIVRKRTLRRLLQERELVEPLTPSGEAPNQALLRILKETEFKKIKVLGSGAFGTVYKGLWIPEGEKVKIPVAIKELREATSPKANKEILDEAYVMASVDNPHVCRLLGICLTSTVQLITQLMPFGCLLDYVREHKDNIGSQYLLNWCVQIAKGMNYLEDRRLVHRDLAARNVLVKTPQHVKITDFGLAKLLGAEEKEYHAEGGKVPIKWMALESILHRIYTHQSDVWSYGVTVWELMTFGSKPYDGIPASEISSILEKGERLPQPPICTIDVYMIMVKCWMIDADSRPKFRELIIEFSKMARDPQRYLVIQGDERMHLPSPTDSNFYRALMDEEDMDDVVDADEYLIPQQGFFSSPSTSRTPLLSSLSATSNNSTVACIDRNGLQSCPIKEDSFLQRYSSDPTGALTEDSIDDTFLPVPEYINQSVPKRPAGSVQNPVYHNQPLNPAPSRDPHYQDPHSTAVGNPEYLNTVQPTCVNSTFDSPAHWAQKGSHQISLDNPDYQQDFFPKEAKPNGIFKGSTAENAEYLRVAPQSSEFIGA
measured-metric: IC50 (nM)

Below, each entry is followed by its recorded IC50 result.
compound	measurement-unit	IC50
C=CC(=O)Nc1cc(Nc2nccc(-c3cn4c5c(cccc35)OCC(C)(C)C4)n2)c(OC)cc1N(C)CCN(C)C [Embodiment 41]	nM	4.9
C=CC(=O)Nc1cc(Nc2nccc(-c3c4n(c5ccc(F)cc35)CCC4)n2)c(OC)cc1N(C)CCN(C)C [Embodiment 13]	nM	0.65
C=CC(=O)Nc1cc(Nc2ncc(F)c(-c3c4n(c5ccccc35)C(C)(C)COC4)n2)c(OC)cc1N(C)CCN(C)C.CS(=O)(=O)O [Embodiment 36, methanesulfonate]	nM	2.7

I: C=CC(=O)Nc1cc(Nc2nccc(-c3c4n(c5ccccc35)CCOC4)n2)c(OC)cc1N(C)C(C)CN(C)C (stereo not shown) [Embodiment 20]
II: C=CC(=O)Nc1cc(Nc2nccc(-c3c4n(c5ccc(F)cc35)CCOC4)n2)c(OC)cc1N(C)CCN(C)C [Embodiment 37]
III: C=CC(=O)Nc1cc(Nc2ncc(F)c(-c3c4n(c5c(OC)cccc35)CCOC4)n2)c(OC)cc1N(C)CCN(C)C [Embodiment 35]
Prompt: Put the items in order so that reported IC50 rises from first to last. Enter labels, ranked according to the request.
Completion: II, I, III

----------
- tgt: EGFR d746-750/T790M (Homo sapiens, UniProt P00533, DEL746-750/T790M)
- procedure-details: EGFR d746-750/T790M enzyme HTRF inhibition assay
- condition-context: 40 μM ATP
measured-metric: IC50 (pM)

molecule	tgt	result-number
C=CC(=O)Nc1cc(Nc2nccc(-c3c4n(c5ccccc35)CCC4)n2)c(OC)cc1N(C)C(C)CN(C)C (stereo not shown) [Embodiment 11]	EGFR d746-750/T790M (Homo sapiens, UniProt P00533, DEL746-750/T790M)	200
C=CC(=O)Nc1cc(Nc2nccc(-c3c4n(c5ccccc35)CCC4=O)n2)c(OC)cc1N(C)CCN(C)C [Embodiment 12]	EGFR d746-750/T790M (Homo sapiens, UniProt P00533, DEL746-750/T790M)	310
C=CC(=O)Nc1cc(Nc2nccc(-c3cn4c5c(cccc35)OCCC4)n2)c(OC)cc1N(C)CCN(C)C [Embodiment 40]	EGFR d746-750/T790M (Homo sapiens, UniProt P00533, DEL746-750/T790M)	400

a: C=CC(=O)Nc1cc(Nc2nccc(-c3c4n(c5ccccc35)CCC4)n2)c(OC)cc1N(C)CCN1CCCC1 [Embodiment 5]
b: C=CC(=O)Nc1cc(Nc2ncc(F)c(-c3c4n(c5cc(F)ccc35)CCOC4)n2)c(OC)cc1N(C)CCN(C)C [Embodiment 33]
c: C=CC(=O)Nc1cc(Nc2ncc(F)c(-c3c4n(c5ncccc35)CCOC4)n2)c(OC)cc1N(C)CCN(C)C [Embodiment 39]
d: C=CC(=O)Nc1cc(Nc2nccc(-c3c4n(c5ccccc35)CCOC4)n2)c(OCC)cc1N(C)CCN(C)C [Embodiment 28]
Prompt: Order the 4 molecules from highest to lowest IC50. In your reply, arrange the labels in the requested order.
Completion: a, c, b, d
(a: 970 pM, c: 600 pM, b: 400 pM, d: 200 pM)

----------
The molecules below have reported IC50 for INSR (Homo sapiens).
measured-metric: IC50 (nM)

molecule	measurement-unit	IC50
C=CC(=O)Nc1cc(Nc2nccc(-c3c4n(c5ccccc35)CCOC4)n2)c(OC)cc1N(C)CC(C)(C)N(C)C [Embodiment 25]	nM	333

A: C=CC(=O)Nc1cc(Nc2nccc(-c3c4n(c5cc(F)ccc35)CCOC4)n2)c(OC)cc1N(C)CCN(C)C [Embodiment 38]
B: C=CC(=O)Nc1cc(Nc2nccc(-c3c4n(c5ccccc35)CCC4)n2)c(OC)cc1OCCN(C)C [Embodiment 3]
C: C=CC(=O)Nc1cc(Nc2nccc(-c3c4n(c5ccccc35)CCOC4)n2)c(OC)cc1N(C)CCNC [Embodiment 27]
Prompt: Sort low-to-high on IC50, please. To answer, arrange all of the labels according to the requested order.
Completion: A, C, B
(A: 310 nM, C: 570 nM, B: 886 nM)

1: C=CC(=O)Nc1cc(Nc2nccc(-c3c4n(c5ccccc35)CCOC4)n2)c(OC)cc1N(C)CCN(C)C [Embodiment 17]
2: C=CC(=O)Nc1cc(Nc2nccc(-c3c4n(c5ccccc35)CCOC4)n2)c(OC)cc1N(C)CCN(C)CC [Embodiment 18]
Prompt: Quick one: lower IC50, 1 or 2 ? // caller expects the label of the chosen entry
Completion: 1

----------
- Test system: NCI-H1975 lung cancer patient-derived xenograft (CDX)
- procedure-details: Pharmacodynamics study in vivo, NCI-H1975 xenograft (CDX) model
- Set-up: species or system BALB/c nude mice
- condition-context: day 4, oral daily: compound 30 10 mg/kg, 33, 34, 40, 42, 43 20 mg/kg, AZD9291 5 mg/kg
measured-metric: Tumor Volume (mm^3) 4 days
Unit mm^3 implied. Number only.

Field: example entries. Status: answers known.
molecule	tgt	measurement-unit	Tumor Volume (mm^3) 4 days
C=CC(=O)Nc1cc(Nc2ncc(F)c(-c3c4n(c5cc(F)ccc35)CCOC4)n2)c(OC)cc1N(C)CCN(C)C [Embodiment 33]	NCI-H1975 lung cancer patient-derived xenograft (CDX)	mm^3	91
C=CC(=O)Nc1cc(Nc2nccc(-c3cn4c5c(cccc35)OC3(CC3)C4)n2)c(OC)cc1N(C)CCN(C)C [Embodiment 42]	NCI-H1975 lung cancer patient-derived xenograft (CDX)	mm^3	85
C=CC(=O)Nc1cc(Nc2nccc(-c3cn4c5c(cccc35)OC3(CC3)C4)n2)c(OC)cc1N(C)CC(C)(C)N(C)C [Embodiment 43]	NCI-H1975 lung cancer patient-derived xenograft (CDX)	mm^3	92
C=CC(=O)Nc1cc(Nc2ncc(F)c(-c3c4n(c5cc(Cl)ccc35)CCOC4)n2)c(OC)cc1N(C)CCN(C)C [Embodiment 34]	NCI-H1975 lung cancer patient-derived xenograft (CDX)	mm^3	102
C=CC(=O)Nc1cc(Nc2ncc(F)c(-c3c4n(c5ccccc35)CCOC4)n2)c(OC)cc1N(C)CCN(C)C [Embodiment 30]	NCI-H1975 lung cancer patient-derived xenograft (CDX)	mm^3	115

Prompt: Return Tumor Volume (mm^3) 4 days for the following molecule: C=CC(=O)Nc1cc(Nc2nccc(-c3cn(C)c4ccccc34)n2)c(OC)cc1N(C)CCN(C)C [AZD9291, reference compound]
Completion: 86

Prompt: Kindly indicate its recorded Tumor Volume (mm^3) 4 days. Item: C=CC(=O)Nc1cc(Nc2nccc(-c3cn4c5c(cccc35)OCCC4)n2)c(OC)cc1N(C)CCN(C)C [Embodiment 40]
Completion: 108
